Species: Rattus norvegicus
TEST_PROTOCOL: DrugMatrix - Regimen: Daily Repeat
Format: toxicity, organism-based, Sprague-Dawley
Design: regimen Daily Repeat, gender Male, age 6-8 weeks
MEASUREMENT_SETUP: in vivo, po, 0 mg/kg, 120 h, tissue Blood, route oral GAVAGE, dose level Control, time 5 day, […]
ASSAY_READOUT: MONOCYTE

CO[C@H]1/C=C/O[C@@]2(C)Oc3c(C)c(O)c4c(O)c(c(/C=N/N5CCN(C6CCCC6)CC5)c(O)c4c3C2=O)NC(=O)/C(C)=C\C=C\[C@H](C)[C@H](O)[C@@H](C)[C@@H](O)[C@@H](C)[C@H](OC(C)=O)[C@@H]1C [RIFAPENTINE]: 1.17%
CC(C)(C)NC(=O)[C@H]1CC[C@H]2[C@@H]3CC[C@H]4NC(=O)C=C[C@]4(C)[C@H]3CC[C@]12C [FINASTERIDE]: 1%
COc1cc(N)c(Cl)cc1C(=O)NC1CCN(CCCOc2ccc(F)cc2)CC1OC (centres undefined) [CISAPRIDE]: 0.33%

Proceed to the following item.
Need MONOCYTE of Clc1ccc(COC(Cn2ccnc2)c2ccc(Cl)cc2Cl)cc1 (centres undefined) [ECONAZOLE] , thanks.
2.33%

----------
Would you kindly list LEUKOCYTE COUNT for each of these compounds?
Species: Rattus norvegicus
TEST_PROTOCOL: DrugMatrix - Regimen: Daily Repeat
Format: toxicity, organism-based, Sprague-Dawley
Design: regimen Daily Repeat, gender Male, age 6-8 weeks
MEASUREMENT_SETUP: in vivo, po, 50 mg/kg, 72 h, tissue Blood, route oral GAVAGE, dose level Low, time 3 day, vehicle .5 % CMC
One number for each entry, in x10E3/uL.

Some compounds with recorded LEUKOCYTE COUNT:
NC1CCN(c2nc3c(cc2F)c(=O)c(C(=O)O)cn3-c2ccc(F)cc2F)C1 (centres undefined) [TOSUFLOXACIN]: 12.93
CN(C)[C@@H]1C(O)=C(C(N)=O)C(=O)[C@@]2(O)C(O)=C3C(=O)c4c(O)ccc(Cl)c4[C@@](C)(O)[C@H]3C[C@@H]12 [CHLORTETRACYCLINE]: 11.8
CCN1CCC[C@H]1CNC(=O)c1cc(S(N)(=O)=O)ccc1OC [LEVOSULPIRIDE]: 14.5

Kindly consider the entry below.
Quick check: LEUKOCYTE COUNT of Cc1cccc(C)c1OCC(C)N (centres undefined) [MEXILETINE] ?
12.6

----------
Please go through the items and note down their GLUCOSE.
Species: Rattus norvegicus
TEST_PROTOCOL: DrugMatrix - Regimen: Daily Repeat
Format: toxicity, organism-based, Sprague-Dawley
Set-up: regimen Daily Repeat, gender Male, age 6-8 weeks
MEASUREMENT_SETUP: in vivo, po, 1500 mg/kg, 72 h, tissue Plasma, route oral GAVAGE, dose level High, time 3 day, vehicle .5 % CMC

Known GLUCOSE results, listed for orientation:
COC(=O)Nc1nc2ccc([S+]([O-])c3ccccc3)cc2[nH]1 (stereo not given): 160.33 mg/dL
O=c1cnn([C@@H]2O[C@H](CO)[C@@H](O)[C@H]2O)c(=O)[nH]1: 179.67 mg/dL
CC(C)=CCC/C(C)=C/CO: 162 mg/dL
CC(C)Oc1ccc2c(=O)c(-c3ccccc3)coc2c1: 149.33 mg/dL

Quick one: GLUCOSE of `CN(C)[C@@H]1C(O)=C(C(N)=O)C(=O)[C@@]2(O)C(O)=C3C(=O)c4c(O)ccc(Cl)c4[C@@](C)(O)[C@H]3C[C@@H]12` ?
163.67 mg/dL

----------
Can you tell me NEUTROPHIL for the items I'm about to list?
Species on record: Rattus norvegicus
TEST_PROTOCOL: DrugMatrix - Regimen: Daily Repeat
Format: toxicity, organism-based, Sprague-Dawley
Parameters: regimen Daily Repeat, gender Male, age 6-8 weeks
MEASUREMENT_SETUP: in vivo, po, 0 mg/kg, 72 h, tissue Blood, route oral GAVAGE, dose level Control, time 3 day, vehicle 100 % WATER
Give bare numbers, in %.

// solved cases for NEUTROPHIL follow
Cc1ccc(NC(=O)c2ccc(CN3CCN(C)CC3)cc2)cc1Nc1nccc(-c2cccnc2)n1: 9.17
O.O.O.O.O.O.[Cl-].[Cl-].[Sr+2] [STRONTIUM CHLORIDE HEXAHYDRATE]: 9.17
CCN(CC)CCNC(=O)c1cc(S(C)(=O)=O)ccc1OC [TIAPRIDE]: 9.17
CN(C)CCOC(c1ccccc1)c1ccccc1 [DIPHENHYDRAMINE]: 10.17
CC(C)(C)CC(C)(C)c1ccc(OCCOCC[N+](C)(C)Cc2ccccc2)cc1.[Cl-] [BENZETHONIUM CHLORIDE]: 10.17

Items follow; give NEUTROPHIL for each.
1. NNc1nncc2ccccc12 [HYDRALAZINE]
2. CN1[C@@H]2CC[C@H]1C[C@@H](OC(=O)C(CO)c1ccccc1)C2 (some centres undefined)
3. CN(C)CC[C@@H](c1ccc(Cl)cc1)c1ccccn1

10.17
10
6.5

I have this molecule here, `Oc1cccc(O)c1O` , and I need its recorded NEUTROPHIL.
14.5

----------
What PHOSPHORUS was measured for each of the following?
Species on record: Rattus norvegicus
TEST_PROTOCOL: DrugMatrix - Regimen: Daily Repeat
Assay type: toxicity, organism-based, Sprague-Dawley
Parameters: regimen Daily Repeat, gender Male, age 6-8 weeks
MEASUREMENT_SETUP: in vivo, po, 2000 mg/kg, 72 h, tissue Plasma, route oral GAVAGE, dose level High, time 3 day, vehicle .5 % CMC
Give bare numbers, in mg/dL.

Some entries whose results are on file:
O=C1Nc2ccc(Cl)cc2C(c2ccccc2Cl)=NC1O (stereo unspecified) [LORAZEPAM]: 10.23
CN(C/C=C/C#CC(C)(C)C)Cc1cccc2ccccc12 [TERBINAFINE]: 10.4
CN/C(=N/CCSCc1nc[nH]c1C)NC#N [CIMETIDINE]: 11.87
CC1(C)S[C@@H]2[C@H](NC(=O)[C@H](N)c3ccccc3)C(=O)N2[C@H]1C(=O)O [AMPICILLIN]: 11.33
NC1CCN(c2nc3c(cc2F)c(=O)c(C(=O)O)cn3-c2ccc(F)cc2F)C1 (stereo unspecified) [TOSUFLOXACIN]: 11.67

Let us examine a further case.
// PHOSPHORUS lookup, key: COc1cc2nc(N3CCN(C(=O)c4ccco4)CC3)nc(N)c2cc1OC [PRAZOSIN]
10.87

----------
Species on record: Rattus norvegicus
TEST_PROTOCOL: DrugMatrix - Regimen: Daily Repeat
Assay type: toxicity, organism-based, Sprague-Dawley
Set-up: regimen Daily Repeat, gender Male, age 6-8 weeks
MEASUREMENT_SETUP: in vivo, po, 0 mg/kg, 120 h, tissue Plasma, route oral GAVAGE, dose level Control, time 5 day, vehicle .5 % CMC
ASSAY_READOUT: CREATININE (mg/dL)
Numbers only, in mg/dL.

The following compounds have reported results that may help.
CNCCC(Oc1ccc(C(F)(F)F)cc1)c1ccccc1 (stereo not drawn): 0.53
COC1=C(OC)C(=O)C(CCCCCCCCCCO)=C(C)C1=O: 0.19
NC1CCN(c2nc3c(cc2F)c(=O)c(C(=O)O)cn3-c2ccc(F)cc2F)C1 (stereo not drawn): 0.47
CN(C)[C@@H]1C(O)=C(C(N)=O)C(=O)[C@@]2(O)C(O)=C3C(=O)c4c(O)ccc(Cl)c4[C@@](C)(O)[C@H]3C[C@@H]12: 0.23
CC(=O)Oc1ccc(C(c2ccc(OC(C)=O)cc2)c2ccccn2)cc1: 0.62
Clc1ccccc1CN1CCc2sccc2C1: 0.75
Cn1c(=O)c2c(ncn2CC(O)CO)n(C)c1=O (stereo not drawn): 0.23
O=C1Nc2ccc(Cl)cc2C(c2ccccc2Cl)=NC1O (stereo not drawn): 0.18
NCCCC(O)(P(=O)(O)O)P(=O)(O)O: 0.75
O=C1CN=C(c2ccccc2Cl)c2cc([N+](=O)[O-])ccc2N1: 0.19

Hello, I would appreciate it if you could give CREATININE for each entry below.
1. O=C1C(CC[S+]([O-])c2ccccc2)C(=O)N(c2ccccc2)N1c1ccccc1 (stereo not drawn)
2. COc1ccc(C2C(=O)c3ccccc3C2=O)cc1
3. CN(C/C=C/C#CC(C)(C)C)Cc1cccc2ccccc12
4. CC(C(=O)O)c1ccc2oc(-c3ccc(Cl)cc3)nc2c1 (stereo not drawn)
5. CN/C(=N/CCSCc1nc[nH]c1C)NC#N
6. C[C@H]1O[C@@H](n2cc(F)c(=O)[nH]c2=O)[C@H](O)[C@@H]1O
7. CCN(CC)CCOc1ccc(/C(=C(/Cl)c2ccccc2)c2ccccc2)cc1
8. COc1cc2nc(N3CCN(C(=O)c4ccco4)CC3)nc(N)c2cc1OC

0.18
0.75
0.47
0.47
0.19
0.19
0.37
0.18
